Below: a set of entries, each annotated with reported Activity.
Molecular target: Protein cereblon/Tyrosinase (Homo sapiens) (UniProt P14679+Q96SW2)
Sequence (P14679 whole entry, looked up): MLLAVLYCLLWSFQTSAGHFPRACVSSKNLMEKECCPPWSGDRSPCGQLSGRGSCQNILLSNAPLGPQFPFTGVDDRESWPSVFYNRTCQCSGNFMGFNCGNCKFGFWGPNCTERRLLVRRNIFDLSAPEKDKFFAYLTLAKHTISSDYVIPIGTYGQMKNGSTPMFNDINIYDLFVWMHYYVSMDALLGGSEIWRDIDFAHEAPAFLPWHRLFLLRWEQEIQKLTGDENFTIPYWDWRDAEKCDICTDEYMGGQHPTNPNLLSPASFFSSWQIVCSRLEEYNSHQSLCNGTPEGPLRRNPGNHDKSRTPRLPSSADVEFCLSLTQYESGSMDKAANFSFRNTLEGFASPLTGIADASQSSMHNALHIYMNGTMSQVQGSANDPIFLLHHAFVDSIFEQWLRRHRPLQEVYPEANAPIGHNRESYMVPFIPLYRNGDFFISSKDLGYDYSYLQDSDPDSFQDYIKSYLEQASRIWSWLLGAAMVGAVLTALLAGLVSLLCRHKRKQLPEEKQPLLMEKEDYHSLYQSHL
Sequence (Q96SW2 whole entry, looked up): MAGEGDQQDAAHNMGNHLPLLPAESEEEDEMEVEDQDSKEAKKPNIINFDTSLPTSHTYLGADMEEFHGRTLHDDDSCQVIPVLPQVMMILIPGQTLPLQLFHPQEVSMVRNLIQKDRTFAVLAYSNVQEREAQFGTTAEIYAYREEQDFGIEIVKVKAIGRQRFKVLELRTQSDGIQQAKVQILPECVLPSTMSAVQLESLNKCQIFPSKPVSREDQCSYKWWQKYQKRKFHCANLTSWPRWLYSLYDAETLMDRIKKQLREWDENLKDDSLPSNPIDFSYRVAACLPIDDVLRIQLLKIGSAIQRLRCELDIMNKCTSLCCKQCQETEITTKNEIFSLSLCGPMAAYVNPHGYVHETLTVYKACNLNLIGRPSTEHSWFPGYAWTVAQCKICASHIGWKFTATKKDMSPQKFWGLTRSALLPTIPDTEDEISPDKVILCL
Assay: Protac activity at CRBN E3 ubiquitin ligase/tyrosinase in human A375 cells assessed as induction of tyrosinase degradation at 50 uM measured after 24 hrs by immunoblotting analysis relative to control
Type: cell-based
Settings: A-375
Value expressed in %; do not type the unit.

Observe how each entry below is paired with its result.
1. N[C@@H](Cc1ccc(O)c(O)c1)C(=O)NCCOCCNc1cccc2c1C(=O)N(C1CCC(=O)NC1=O)C2=O (stereo partly specified) | 7
2. N[C@@H](Cc1ccc(O)c(O)c1)C(=O)NCCNc1cccc2c1C(=O)N(C1CCC(=O)NC1=O)C2=O (stereo partly specified) | 14
3. N[C@@H](Cc1ccc(O)c(O)c1)C(=O)NCCCNc1cccc2c1C(=O)N(C1CCC(=O)NC1=O)C2=O (stereo partly specified) | 25
4. N[C@@H](Cc1ccc(O)c(O)c1)C(=O)NCCOCCOCCNc1cccc2c1C(=O)N(C1CCC(=O)NC1=O)C2=O (stereo partly specified) | 7
5. N[C@@H](Cc1ccc(O)c(O)c1)C(=O)NCCCCNc1cccc2c1C(=O)N(C1CCC(=O)NC1=O)C2=O (stereo partly specified) | 19

Input line: For the compound N[C@@H](Cc1ccc(O)c(O)c1)C(=O)NCCCCCCCNc1cccc2c1C(=O)N(C1CCC(=O)NC1=O)C2=O (stereo partly specified) , what Activity is on record?
Output line: 37

###

Assay: Cytotoxicity against HEK293 cells assessed as reduction in cell viability measured after 72 hrs by CCK8 assay
Assay type: cell-based
Conditions: human
metric name: CC50 at 72 h

Input line: Please report the recorded CC50 at 72 h for N[C@@H](Cc1ccc(O)c(O)c1)C(=O)NCCCCCNc1cccc2c1C(=O)N(C1CCC(=O)NC1=O)C2=O (stereo partly specified) .
Output line: > 700 µM

###

Molecular target: Protein cereblon/Tyrosinase (Homo sapiens) (UniProt P14679+Q96SW2)
Test: Protac activity at CRBN E3 ubiquitin ligase/tyrosinase in human A-375 cells assessed as induction of tyrosinase degradation at 50 uM measured after 24 hrs by immunoblotting analysis
Format: cell-based
Active and inactive are the calls of the source. The calls are words filed in the database; no cut-off is given here.
# valid calls are active, inactive; nothing else

For orientation, consider the following solved cases.
1. O=C1CCC(N2C(=O)c3cccc(NCCCCCCCCC(=O)OCc4cc(=O)c(O)co4)c3C2=O)C(=O)N1 (stereo not drawn) | inactive
2. N[C@@H](Cc1ccc(O)c(O)c1)C(=O)O | inactive
3. O=C1CCC(N2C(=O)c3ccccc3C2=O)C(=O)N1 (stereo not drawn) | inactive
4. N[C@@H](Cc1ccc(O)c(O)c1)C(=O)NCCCCCCCCNc1cccc2c1C(=O)N(C1CCC(=O)NC1=O)C2=O (stereo partly drawn) | active
5. N[C@@H](Cc1ccc(O)c(O)c1)C(=O)NCCCCCNc1cccc2c1C(=O)N(C1CCC(=O)NC1=O)C2=O (stereo partly drawn) | active
6. O=C1CCC(N2C(=O)c3cccc(NCCCCCC(=O)OCc4cc(=O)c(O)co4)c3C2=O)C(=O)N1 (stereo not drawn) | inactive
7. O=C1CCC(N2C(=O)c3cccc(NCCCCCCCC(=O)OCc4cc(=O)c(O)co4)c3C2=O)C(=O)N1 (stereo not drawn) | inactive

Input line: # fetch the recorded call for O=C1CCC(N2C(=O)c3cccc(NCCCCCCCCCCC(=O)OCc4cc(=O)c(O)co4)c3C2=O)C(=O)N1 (stereo not drawn) here
Output line: inactive
